# Format: physicochemical
# CONDITION: potentiometry pH 2-11, 298 K, 4 mM HClO4, I = 40 mM SDS, ligand 0.5 mM; SD in parentheses
# Procedure: All peptides ([…]-COOH, […]-COOH, […] were purchased from KareBay Biochem (USA) (certified purity: 98 %) and were used as received. […] Stability constants for proton, Zn(II) and Cu(II) complexes were calculated from pH -metric titration curves carried out over the pH range 2-11 at T = 298 K in water solution of 4 mM HClO 4 and ionic strength 40 mM (SDS), using a total volume of 3 ml. […]
READOUT: log β HL

- SUBSTANCE: "H-VFQFLGRIIHHVGNFVHGFSHVF-OH [Clavanin B]"
  log β HL: "11.17 (1)"
- SUBSTANCE: "H-VFQFLGKIIHHVGNFVHGFSHVF-OH [Clavanin A]"
  log β HL: "10.18 (6)"
- SUBSTANCE: "H-AFKLLGRIIHHVGNFVYGFSHVF-OH [Clavanin D]"
  log β HL: "11.13 (6)"

For the next question, use this substance.
Task item: Reported log β HL for H-LFKLLGKIIHHVGNFVHGFSHVF-OH [Clavanin E] : what is it?
Reply: 10.77 (2)

* * *

# Format: physicochemical
# CONDITION: potentiometry pH 2-11, 298 K, 4 mM HClO4, I = 40 mM SDS, ligand 0.5 mM; SD in parentheses
READOUT: log β H3L

- SUBSTANCE: "H-VFQFLGRIIHHVGNFVHGFSHVF-OH [Clavanin B]"
  RESULT: "28.47 (2)"
- SUBSTANCE: "H-AFKLLGRIIHHVGNFVYGFSHVF-OH [Clavanin D]"
  RESULT: "29.89 (5)"
- SUBSTANCE: "H-VFQFLGKIIHHVGNFVHGFSHVF-OH [Clavanin A]"
  RESULT: "27.15 (8)"

# input for lookup
Task item: # lookup: log β H3L of H-LFKLLGKIIHHVGNFVHGFSHVF-OH [Clavanin E]
Reply: 28.25 (3)

* * *

# Assay type: physicochemical
# CONDITION: potentiometry pH 2-11, 298 K, 4 mM HClO4, I = 40 mM SDS, ligand 0.5 mM; SD in parentheses
READOUT: log β H5L

Record log β H5L per entry; entries follow.
1. H-LFKLLGKIIHHVGNFVHGFSHVF-OH [Clavanin E]
2. H-VFQFLGKIIHHVGNFVHGFSHVF-OH [Clavanin A]
3. H-AFKLLGRIIHHVGNFVYGFSHVF-OH [Clavanin D]
4. H-VFQFLGRIIHHVGNFVHGFSHVF-OH [Clavanin B]

Reply:
43.37 (3)
41.7 (8)
44.94 (5)
43.35 (2)

* * *

Kindly supply the reported pKa, species H4L values for the records listed here.
# Format: physicochemical
Where no end group is shown, it is not given here.
Give bare numbers.

Consider the reported pKa, species H4L for these substances:
- SUBSTANCE: "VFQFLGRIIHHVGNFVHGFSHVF [Clavanin B]"
  QUANTITATIVE RESULT: 7.79
- SUBSTANCE: "H-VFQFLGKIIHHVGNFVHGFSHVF-OH [Clavanin A]"
  QUANTITATIVE RESULT: 7.63
- SUBSTANCE: "H-LFKLLGKIIHHVGNFVHGFSHVF-OH [Clavanin E]"
  QUANTITATIVE RESULT: 7.82

Task item: What does the record list as pKa, species H4L for H-AFKLLGRIIHHVGNFVYGFSHVF-OH [Clavanin D] ?
Reply: 7.81

* * *

# Assay type: physicochemical
# CONDITION: potentiometry pH 2-11, 298 K, 4 mM HClO4, I = 40 mM SDS, ligand 0.5 mM; SD in parentheses
READOUT: log β H6L

Examples from the recorded data:
- SUBSTANCE: "H-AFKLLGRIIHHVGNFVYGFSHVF-OH [Clavanin D]"
  log β H6L: "50.20 (5)"
- SUBSTANCE: "H-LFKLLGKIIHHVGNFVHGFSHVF-OH [Clavanin E]"
  log β H6L: "48.92 (4)"
- SUBSTANCE: "H-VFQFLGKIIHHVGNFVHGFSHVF-OH [Clavanin A]"
  log β H6L: "47.02 (10)"

Task item: Name the recorded log β H6L for H-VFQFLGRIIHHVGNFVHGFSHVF-OH [Clavanin B] .
Reply: 48.47 (2)

* * *

# Format: physicochemical
# CONDITION: potentiometry pH 2-11, 298 K, 4 mM HClO4, I = 40 mM SDS, ligand 0.5 mM; SD in parentheses
READOUT: log β H2L

Please review the entries below; each comes with its answer.
- SUBSTANCE: "H-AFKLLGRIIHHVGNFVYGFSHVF-OH [Clavanin D]"
  RESULT: "21.21 (4)"
- SUBSTANCE: "H-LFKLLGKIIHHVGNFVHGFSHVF-OH [Clavanin E]"
  RESULT: "19.96 (3)"
- SUBSTANCE: "H-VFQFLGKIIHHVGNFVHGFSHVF-OH [Clavanin A]"
  RESULT: "19.06 (6)"

Task item: Find the recorded log β H2L belonging to H-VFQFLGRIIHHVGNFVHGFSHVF-OH [Clavanin B] and report it.
Reply: 20.21 (2)

* * *

# Type: binding
Where no end group is shown, it is not given here.
READOUT: pKa, line CuH-1L
Numbers only.

- SUBSTANCE: "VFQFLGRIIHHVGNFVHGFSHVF [Clavanin B]"
  pKa, line CuH-1L: 9.40
- SUBSTANCE: "H-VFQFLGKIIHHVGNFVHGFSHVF-OH [Clavanin A]"
  pKa, line CuH-1L: 8.82
- SUBSTANCE: "H-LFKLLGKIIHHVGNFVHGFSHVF-OH [Clavanin E]"
  pKa, line CuH-1L: 8.78

Please turn your attention to the following entry.
Task item: Any idea what pKa, line CuH-1L was measured for H-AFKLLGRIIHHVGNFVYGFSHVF-OH [Clavanin D] ?
Reply: 9.92

* * *

# Assay type: binding
Where no end group is shown, it is not given here.
Please provide measured pKa, line CuH2L for the entries that follow.

- SUBSTANCE: "H-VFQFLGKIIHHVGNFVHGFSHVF-OH [Clavanin A]"
  RESULT: 6.82
- SUBSTANCE: "H-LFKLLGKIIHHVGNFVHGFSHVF-OH [Clavanin E]"
  RESULT: 6.90
- SUBSTANCE: "H-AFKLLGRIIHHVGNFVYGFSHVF-OH [Clavanin D]"
  RESULT: 6.95

Attention now turns to another entry.
Task item: // returns reported pKa, line CuH2L for input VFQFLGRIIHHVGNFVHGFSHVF [Clavanin B]
Reply: 6.86

* * *

# Format: binding
Where no end group is shown, it is not given here.
Kindly state pKa, line CuHL for each of the entries shown.
Give bare numbers.

The following substances have reported results that may help.
- SUBSTANCE: "H-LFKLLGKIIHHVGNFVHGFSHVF-OH [Clavanin E]"
  pKa, line CuHL: 7.72
- SUBSTANCE: "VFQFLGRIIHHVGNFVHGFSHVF [Clavanin B]"
  pKa, line CuHL: 7.71
- SUBSTANCE: "H-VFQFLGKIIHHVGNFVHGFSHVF-OH [Clavanin A]"
  pKa, line CuHL: 7.56

Task item: Query: pKa, line CuHL; subject: H-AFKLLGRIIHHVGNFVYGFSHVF-OH [Clavanin D]
Reply: 7.94

* * *

# Type: physicochemical
Where no end group is shown, it is not given here.
READOUT: pKa, species H3L
Give bare numbers.

- SUBSTANCE: "H-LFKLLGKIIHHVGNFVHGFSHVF-OH [Clavanin E]"
  pKa, species H3L: 8.29
- SUBSTANCE: "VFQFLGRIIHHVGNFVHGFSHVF [Clavanin B]"
  pKa, species H3L: 8.26

Give pKa, species H3L for each of the items listed below.
1. H-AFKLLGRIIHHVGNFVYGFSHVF-OH [Clavanin D]
2. H-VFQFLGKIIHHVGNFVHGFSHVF-OH [Clavanin A]

Reply:
8.68
8.09

* * *

# Type: binding
Where no end group is shown, it is not given here.
Exercise: state measured pKa, line CuL for each of the substances provided.
Give bare numbers.

Look up pKa, line CuL for the entries below, preserving their order.
1. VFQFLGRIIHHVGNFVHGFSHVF [Clavanin B]
2. H-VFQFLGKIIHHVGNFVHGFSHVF-OH [Clavanin A]
3. H-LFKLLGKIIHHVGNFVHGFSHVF-OH [Clavanin E]

Reply:
8.64
8.36
8.81

Task item: What value of measured pKa, line CuL is listed for H-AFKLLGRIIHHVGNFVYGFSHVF-OH [Clavanin D] ?
Reply: 8.79

* * *

For each entry below, report its pKa, species H6L value.
# Assay type: physicochemical
Where no end group is shown, it is not given here.
Give bare numbers.

// worked examples, pKa, species H6L included
- SUBSTANCE: "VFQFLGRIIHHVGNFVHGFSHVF [Clavanin B]"
  QUANTITATIVE RESULT: 5.12
- SUBSTANCE: "H-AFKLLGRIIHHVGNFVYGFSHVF-OH [Clavanin D]"
  QUANTITATIVE RESULT: 5.26
- SUBSTANCE: "H-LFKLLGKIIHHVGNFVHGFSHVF-OH [Clavanin E]"
  QUANTITATIVE RESULT: 5.55

API: the following record is the query input.
Task item: Form field: reported pKa, species H6L of H-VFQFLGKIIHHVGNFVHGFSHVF-OH [Clavanin A]
Reply: 5.32

The measurements presented in this section are drawn from paper PMC8424629.
